- Tested on: Escherichia coli BW25113
- ASSAY NOTES: plate-normalized OD600 growth (mean of duplicates) (OD600 (normalized)); higher = more growth (less inhibition)
- SETUP CONDITIONS: temperature: 15°C; 48 h; 10 µM
Whole data set: some 1,600 compounds, median “plate-normalized OD600 growth (mean of duplicates)” near 0.31, cut for the lowest 2% near 0.23. What follows is part of a selection rich in the lowest values, with near analogues and random picks from the rest.

| COMPOUND | plate-normalized OD600 growth |
| --- | --- |
| CCN(CC)C(=O)c1ccc([N+](=O)[O-])o1 | 0.247 |
| Cc1cc(=O)[nH]c(SCC(=O)Nc2ccc(Br)cc2)c1C#N | 0.214 |
| O=C(Nc1ccccc1NC(=O)c1ccccc1F)c1ccccc1F | 0.263 |
| N#CC1=C(SCC(=O)Nc2ccc(Br)cc2)NC(=O)C(C#N)C12CCCCC2 (centres undefined) | 0.257 |
